# Tested on: PDE II (Cavia porcellus)
# Test Summary: Inhibition of cAMP PDE II enzyme in guinea pig at 1E-4M concentration.
Measured Property: inhibition

Solved entries:
Cc1nccn1-c1ccc(C2=NNC(=O)CC2)cc1: 19%
O=C1CCC(c2ccc(-n3cnc4ccccc43)cc2)=NN1: 67%
CN1N=C(c2ccc(-n3ccnc3)cc2)CCC1=O: 33%
O=C1CCC(c2cccc(-n3ccnc3)c2)=NN1: 21%
CC1CC(=O)NN=C1c1ccc(-n2cnc3c2CCCC3)cc1 (stereo not given) [TETRAHYDROBENXIMIDAZOLE]: 65%

// query Lab note: need inhibition with PDE II (Cavia porcellus) for entry O=C1CCC(c2ccc(-n3cncn3)cc2)=NN1 , please look it up.
// result 20%

// query Query the reported inhibition for PDE II (Cavia porcellus); item: O=C1CCC(c2ccc(-n3ccnc3)cc2)=NN1Cc1ccccc1
// result 70%

---

Quick list: inhibition per entry.
# System Name: Phosphodiesterase 1 (Homo sapiens, UniProt P54750+Q01064+Q14123)
# Test Summary: Inhibition of cAMP PDE I enzyme in guinea pig at 1E-5M concentration
# Type: protein assay
# Reported Conditions: Cavia porcellus; target entry is the homologue from another species
Write down the value, and be sure its unit follows.

Take a look at these entries with their results.
O=C1CCC(c2ccc(-c3nn[nH]n3)cc2)=NN1: 21%
O=C1CCC(c2ccc(-n3cccc3)cc2)=NN1: 0%
CCc1nc(C)c(Br)n1-c1ccc(-c2ccc(O)nn2)cc1: 20%
O=C1NN=C(c2ccc(-n3ccnc3)cc2)C2CCCCC12 (stereo unspecified): 1%
NC(=O)c1cc(-c2ccc(-n3ccnc3)cc2)nnc1O: 11%

Proceed to the following item.
// query Requested field: inhibition. Item: Oc1ccc(-c2ccc(-n3cnc4c3CCCC4)cc2)nn1
// result 30%

---

# maps each entry to its inhibition
# System Name: Phosphodiesterase 1 (Homo sapiens, UniProt P54750+Q01064+Q14123)
# Test Summary: Inhibition of cGMP PDE I enzyme in guinea pig at 1E-5M concentration
# Type: protein assay
# Reported Conditions: Cavia porcellus; target entry is the homologue from another species
State the answer as a number, implicitly in %.

CCc1nc(C)cn1-c1ccc(C2=NNC(=O)CC2)cc1: 7
NC(=O)c1cc(-c2ccc(-n3ccnc3)cc2)nnc1O: 16
O=C1CCC(c2ccc(-n3ccnc3)cc2)=NN1: 3

// query Using the record for Cc1cc(O)nnc1-c1ccc(-n2ccnc2)cc1 , report its inhibition.
// result 4

// query Look at this compound and give its reported inhibition. Nc1cc(-c2ccc(-n3ccnc3)cc2)nnc1O
// result 7

// query So what does the record say about inhibition for CN1N=C(c2ccc(-n3ccnc3)cc2)CCC1=O ?
// result 3

---

# System Name: Phosphodiesterase 1 (Homo sapiens, UniProt P54750+Q01064+Q14123)
# Test Summary: Inhibition of cAMP PDE I enzyme in guinea pig at 1E-5M concentration
# Type: protein assay
# Reported Conditions: Cavia porcellus; target entry is the homologue from another species
Measured Property: inhibition (%)
Use % as the unit, but write only the number.

O=C1CCC(c2ccc(-n3cnc4c3CCCC4)cc2)=NN1: 8
CC1(C)CC(c2ccc(-n3ccnc3)cc2)=NNC1=O: 7
O=C1CCC(c2cccc(-n3ccnc3)c2)=NN1: 6

Next, consider the following molecule.
// query Quick one: inhibition for CC(=O)OCCN1N=C(c2ccc(-n3ccnc3)cc2)CCC1=O ?
// result 1

---

# System Name: cGMP-dependent 3',5'-cyclic phosphodiesterase (Homo sapiens)
# Test Summary: Inhibition of cAMP PDE II enzyme in guinea pig at 1E-5M concentration
# Reported Conditions: Cavia porcellus; target entry is the homologue from another species
Measured Property: inhibition (%)
// note: answer is a bare numeric in %

Some molecules with known inhibition results, for comparison:
O=C1CCC(c2ccc(-n3cnc4ccccc43)cc2)=NN1: 24
CC1(C)CC(c2ccc(-n3ccnc3)cc2)=NNC1=O: 22
O=C1CCC(c2ccc(-n3cccn3)cc2)=NN1: 27
NC(=O)c1cc(-c2ccc(-n3ccnc3)cc2)nnc1O: 18
CC1CC(c2ccc(-n3ccnc3)cc2)=NNC1=O (stereo unspecified): 15

Continue with the molecule presented below.
// query I have this molecule here, CN1N=C(c2ccc(-n3ccnc3)cc2)CCC1=O , and I need its recorded inhibition.
// result 5

---

# System Name: cGMP-dependent 3',5'-cyclic phosphodiesterase (Homo sapiens, UniProt O00408)
# Sequence (O00408 whole entry): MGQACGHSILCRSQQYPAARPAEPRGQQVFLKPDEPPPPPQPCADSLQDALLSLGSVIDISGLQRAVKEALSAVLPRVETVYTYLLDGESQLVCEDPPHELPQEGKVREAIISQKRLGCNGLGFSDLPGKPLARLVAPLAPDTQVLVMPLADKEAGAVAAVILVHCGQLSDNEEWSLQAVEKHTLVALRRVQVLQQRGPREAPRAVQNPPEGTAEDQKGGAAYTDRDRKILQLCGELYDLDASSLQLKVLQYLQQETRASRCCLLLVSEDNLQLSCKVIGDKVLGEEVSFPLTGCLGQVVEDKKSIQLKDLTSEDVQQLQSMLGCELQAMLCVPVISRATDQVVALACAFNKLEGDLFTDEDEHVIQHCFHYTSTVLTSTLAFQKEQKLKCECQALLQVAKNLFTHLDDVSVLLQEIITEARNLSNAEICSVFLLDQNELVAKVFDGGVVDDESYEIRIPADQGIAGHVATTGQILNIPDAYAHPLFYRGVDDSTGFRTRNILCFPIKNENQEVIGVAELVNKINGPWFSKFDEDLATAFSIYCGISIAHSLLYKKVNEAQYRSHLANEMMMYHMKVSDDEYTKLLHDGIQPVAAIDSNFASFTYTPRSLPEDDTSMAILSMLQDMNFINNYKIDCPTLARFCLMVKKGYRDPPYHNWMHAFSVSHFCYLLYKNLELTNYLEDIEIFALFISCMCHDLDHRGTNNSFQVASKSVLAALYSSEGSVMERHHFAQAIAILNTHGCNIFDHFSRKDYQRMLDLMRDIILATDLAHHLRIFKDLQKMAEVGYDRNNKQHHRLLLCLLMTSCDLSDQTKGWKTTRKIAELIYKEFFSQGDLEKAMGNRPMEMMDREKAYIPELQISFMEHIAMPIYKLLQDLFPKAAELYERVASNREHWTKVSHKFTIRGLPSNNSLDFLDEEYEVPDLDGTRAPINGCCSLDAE
# Test Summary: Inhibition of cGMP PDE II enzyme in guinea pig at 1E-4M concentration
# Reported Conditions: Cavia porcellus; target entry is the homologue from another species
Measured inhibition of individual entries
Write down the numeric answer in % and omit the unit.

Worked examples follow.
CCC1CC(=O)NN=C1c1ccc(-n2ccnc2)cc1 (stereo not given): 40
O=C1CCC(c2cccc(-n3ccnc3)c2)=NN1: 28
O=C1CCC(c2ccc(-n3cnc(CO)c3)cc2)=NN1: 23
O=C1CCC(c2ccc(-n3ccnc3)cc2)=NN1Cc1ccccc1: 70
O=C1CCC(c2ccc(-n3cnc4ccccc43)cc2)=NN1: 70
Oc1ccc(-c2ccc(-n3ccnc3)cc2)nn1: 27
O=C1CCC(c2ccc(NC3=NCCO3)cc2)=NN1: 31
O=C1NN=C(c2ccc(-n3ccnc3)cc2)C2CCCCC12 (stereo not given): 44

// query Quick check: inhibition of Oc1ccc(-c2ccc(-c3ncc[nH]3)cc2)nn1 ?
// result 41

// query Quick check: inhibition of CC1CC(=O)NN=C1c1ccc(-n2cnc3c2CCCC3)cc1 (stereo not given) [TETRAHYDROBENXIMIDAZOLE] ?
// result 68

// query inhibition for CN1N=C(c2ccc(-n3ccnc3)cc2)CCC1=O ?
// result 32

// query Record request: inhibition value, item Nc1cc(-c2ccc(-n3ccnc3)cc2)nnc1O
// result 51

// query # input compound: CCc1nc(C)cn1-c1ccc(C2=NNC(=O)CC2)cc1 ; wanted: its inhibition
// result 44

// query Value lookup for inhibition; key = O=C1CCC(c2ccc(-n3cnc4c3CCCC4)cc2)=NN1
// result 69

// query Fill blank: measured inhibition of the compound Cc1cc(O)nnc1-c1ccc(-n2ccnc2)cc1 is ____.
// result 39

---

# System Name: cGMP-dependent 3',5'-cyclic phosphodiesterase (Homo sapiens, UniProt O00408)
# Test Summary: Inhibitory concentration against cAMP PDE II enzyme in guinea pig
# Parameters: species or system Cavia porcellus
# Reported Conditions: target entry is the homologue from another species
Measured Property: pIC50
Please treat pIC50 as minus the base-10 logarithm of the molar concentration.

The examples below pair each entry with its known result.
O=C1CCC(c2cccc(-n3ccnc3)c2)=NN1: 3.48
Cc1nccn1-c1ccc(C2=NNC(=O)CC2)cc1: 3.38
O=C1CCC(c2ccc(-n3cnc4c3CCCC4)cc2)=NN1: 4.31
O=C1CCC(c2ccc(-n3cnc4ccccc43)cc2)=NN1: 4.38
Oc1ccc(-c2ccc(-c3ncc[nH]3)cc2)nn1: 3.72

Moving on to another compound below.
// query Fill in: pIC50 of O=C1CCC(c2ccc(-n3cnc(CO)c3)cc2)=NN1 is ___
// result 3.32

---

# Test Summary: Ratio of IC50 values for PDE III and PDE II.
A collection of molecules and their measured Ratio
Simply state the number, no unit and no words.

// query I would be grateful if you could share the reported Ratio for CC1CC(=O)NN=C1c1ccc(-n2cnc3c2CCCC3)cc1 (configuration not stated) [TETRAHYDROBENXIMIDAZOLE] .
// result 3.2

// query What measured Ratio goes with CCC1CC(=O)NN=C1c1ccc(-n2ccnc2)cc1 (configuration not stated) ?
// result 740

// query Return reported Ratio; argument: Cc1nccn1-c1ccc(C2=NNC(=O)CC2)cc1
// result 5.4

---

# System Name: cGMP-dependent 3',5'-cyclic phosphodiesterase (Homo sapiens, UniProt O00408)
# Test Summary: Inhibition of cGMP PDE II enzyme in guinea pig at 1E-4M
# Reported Conditions: Cavia porcellus; target entry is the homologue from another species
Measured Property: inhibition
Form field: result (number plus unit)

# annotated cases, reported inhibition shown
CC1CC(O)=NN=C1c1ccc(-n2ccnc2)cc1 (centres undefined) [CI-930]: 23%
CC1CC(c2ccc(-n3ccnc3)cc2)=NNC1=O (centres undefined): 26%
O=C1CCC(c2ccc(-n3cncn3)cc2)=NN1: 24%

Here's the next entry for you.
// query Please look up its inhibition: O=C1CCC(c2ccc(-n3ccnc3)cc2)=NN1 [IMAZODAN]
// result 20%

---

# System Name: cGMP-dependent 3',5'-cyclic phosphodiesterase (Homo sapiens)
# Test Summary: Inhibition of cAMP PDE II enzyme in guinea pig at 1E-5M concentration
# Reported Conditions: Cavia porcellus; target entry is the homologue from another species
Label Criterion met when inhibition is at or above 20%; anything below gets Criterion not met.

O=C1CCC(c2ccc(-n3ccnc3)cc2)=NN1 [IMAZODAN]: Criterion not met

// query Confirm if inhibition reported for the compound O=C1CCC(c2ccc(-c3nn[nH]n3)cc2)=NN1 is 20% or above.
// result Criterion met

// query Does O=C1CCC(c2ccc(NC3=NCCN3)cc2)=NN1 have a reported inhibition of at least 20%?
// result Criterion met

// query Please indicate if the recorded inhibition for CCC1CC(=O)NN=C1c1ccc(-n2ccnc2)cc1 (configuration not stated) meets or exceeds 20%.
// result Criterion not met

// query Please check the record O=C1CCC(c2ccc(-n3ccnc3)cc2)=NN1Cc1ccccc1 and state if its inhibition is at or above 20%.
// result Criterion met

// query inhibition >= 20% for O=C1CCC(c2ccc(-n3cncn3)cc2)=NN1 ?
// result Criterion not met

// query Quick check, inhibition >= 20%? CC1CC(=O)NN=C1c1ccc(-n2cnc3c2CCCC3)cc1 (configuration not stated) [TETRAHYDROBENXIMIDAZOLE]
// result Criterion met

// query Decide: is the reported value of inhibition for O=C1CCC(c2ccc(NC3=NCCS3)cc2)=NN1 equal to or greater than 20%?
// result Criterion met

// query In plain terms: is recorded inhibition at least 20% for CC1CC(O)=NN=C1c1ccc(-n2ccnc2)cc1 (configuration not stated) [CI-930] ?
// result Criterion not met

// query Is the recorded value of inhibition equal to or greater than 20% for this compound? Cc1csc(Nc2ccc(C3=NNC(=O)CC3)cc2)n1
// result Criterion met

// query Does the reported inhibition for O=C1CCC(c2ccc(-n3cnnc3)cc2)=NN1 fall at or above the 20% mark?
// result Criterion met

// query Check the entry Cn1nc(-c2ccc(-n3ccnc3)cc2)ccc1=O : does inhibition equal or exceed 20%?
// result Criterion not met

// query Is inhibition for O=C1CCC(c2cccc(-n3ccnc3)c2)=NN1 at or above 20%?
// result Criterion not met

// query Reported inhibition at or above 20%? Oc1ccc(-c2ccc(-c3ncc[nH]3)cc2)nn1
// result Criterion not met

// query Tell me whether inhibition is at least 20% here: O=C1CCC(c2ccc(NC3=NCCO3)cc2)=NN1
// result Criterion not met
